Sourced from ChEMBL document CHEMBL1201861

Listed compounds paired with reported pIC50
# Test system: GR-ST
# ASSAY NAME: cells
# Assay type: functional, cell-based, Homo sapiens
# CONDITION PARAMETERS: Homo sapiens, GR-ST
# Description: SANGER: Inhibition of human GR-ST cell growth in a cell viability assay.
Would you please state pIC50, meaning minus log10 of the concentration in mol/L, as a bare number?

N[C@@H](CSC(c1ccccc1)(c1ccccc1)c1ccccc1)C(=O)O
5.53

Fill blank: measured pIC50 of the compound "CO[C@H]1C[C@@H]2CC[C@@H](C)[C@@](O)(O2)C(=O)C(=O)N2CCCC[C@H]2C(=O)O[C@H]([C@H](C)C[C@@H]2CC[C@@H](OC(=O)C(C)(CO)CO)[C@H](OC)C2)CC(=O)[C@H](C)/C=C(\C)[C@@H](O)[C@@H](OC)C(=O)[C@H](C)C[C@H](C)/C=C/C=C/C=C/1C" is ____.
7.48

----------
# Test system: SHP77;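 also: growth inhibition of human SHP-77 cells measured by a cell viability assay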
# ASSAY NAME: cells
# Format: functional, cell-based, Homo sapiens, SHP-77
# CONDITION PARAMETERS: Homo sapiens, SHP77
# Description: SANGER: Inhibition of human SHP-77 cell growth in a cell viability assay.
Listed molecules paired with reported IC50

O=C(O)c1ccc(-c2c[nH]c3ncc(-c4ccccc4)cc23)cc1C1CCCC1
> 16 µM
CC(=O)O[C@H]1C(=O)[C@@]2(C)[C@H]([C@H](OC(=O)c3ccccc3)[C@]3(O)C[C@H](OC(=O)[C@H](O)[C@@H](NC(=O)c4ccccc4)c4ccccc4)C(C)=C1C3(C)C)[C@]1(OC(C)=O)CO[C@@H]1C[C@@H]2O
> 0.102 µM
N[C@@H](CSC(c1ccccc1)(c1ccccc1)c1ccccc1)C(=O)O
> 5.12 µM
CC1(C)CNc2cc(NC(=O)c3cccnc3NCc3ccncc3)ccc21
> 2 µM
CCN(CC)CCNC(=O)c1c(C)[nH]c(/C=C2\C(=O)Nc3ccc(F)cc32)c1C
> 8 µM
Nc1ccn([C@@H]2O[C@H](CO)[C@@H](O)C2(F)F)c(=O)n1
> 1.02 µM

Moving on to another molecule below.
Fill blank: measured IC50 of the molecule "COc1cc(N2CCN(C)CC2)ccc1Nc1ncc2c(n1)N(C)c1ccccc1C(=O)N2C" is ____.
> 8 µM

----------
# Test system: NCI-H1755
# ASSAY NAME: cells
# Assay type: functional, cell-based, Homo sapiens
# CONDITION PARAMETERS: nci-h1755
# Description: SANGER: Inhibition of human NCI-H1755 cell growth in a cell viability assay.
MEASURED QUANTITY: IC50

Please tell me: IC50 of "CISPLATIN" , system NCI-H1755?;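 also: cell viability readout used to measure growth inhibition of NCI-H1755 cells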
207 µM

----------
Listed compounds paired with reported IC50
# System: L-363
# ASSAY NAME: cells
# Assay type: functional, cell-based, Homo sapiens
# CONDITION PARAMETERS: Homo sapiens, L-363
# Description: SANGER: Inhibition of human L-363 cell growth in a cell viability assay.
Provide only the numeric value, understood in µM.

Fill blank: measured IC50 of the compound N[C@@H](CSC(c1ccccc1)(c1ccccc1)c1ccccc1)C(=O)O [S-TRITYL-L-CYSTEINE] is ____.
1.73

Fill blank: measured IC50 of the compound "N#Cc1c(O)c2c(-c3ccc(-c4ccccc4O)cc3)csc2[nH]c1=O" is ____.
0.211

Fill blank: measured IC50 of the compound CCN(CC)CCNC(=O)c1c(C)[nH]c(/C=C2\C(=O)Nc3ccc(F)cc32)c1C [SUNITINIB] is ____.
4.81

----------
Listed compounds paired with reported pIC50
# Tested on: OVCAR-4;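 also: growth inhibition of human OVCAR-4 cells, measured with a cell viability assay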
# ASSAY NAME: cells
# Type: functional, cell-based, Homo sapiens
# CONDITION PARAMETERS: Homo sapiens, OVCAR-4
# Description: SANGER: Inhibition of human OVCAR-4 cell growth in a cell viability assay.
Would you please state pIC50, meaning minus log10 of the concentration in mol/L, as a bare number?

Would you please look over these solved cases?
Nc1ccn([C@@H]2O[C@H](CO)[C@@H](O)C2(F)F)c(=O)n1 [GEMCITABINE]
6.20
CC(C)c1ccccc1Cc1cc(C(=O)Nc2ccc(S(=O)(=O)c3ccccc3C(C)(C)C)cc2)c(O)c(O)c1O
6.22
N[C@@H](CSC(c1ccccc1)(c1ccccc1)c1ccccc1)C(=O)O [S-TRITYL-L-CYSTEINE]
5.42

Moving on to another compound below.
Fill blank: measured pIC50 of the compound CN(C)C(=N)NC(=N)N [METFORMIN] is ____.
2.35

----------
# Tested on: HuTu80;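 also: growth inhibition of HuTu80 human cells, determined with a cell viability readout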
# ASSAY NAME: cells
# Type: functional, cell-based, Homo sapiens, HUTU-80
# CONDITION PARAMETERS: hutu-80
# Description: SANGER: Inhibition of human HUTU-80 cell growth in a cell viability assay.
MEASURED QUANTITY: IC50 (pM)
Provide only the numeric value, understood in pM.

Fill blank: measured IC50 of the sequence "BLEOMYCIN" is ____.
136

----------
# Tested on: JVM-3;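 also: growth inhibition of human JVM-3 cells, read out with a cell viability assay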
# ASSAY NAME: cells
# Type: functional, cell-based, Homo sapiens
# CONDITION PARAMETERS: Homo sapiens, JVM-3
# Description: SANGER: Inhibition of human JVM-3 cell growth in a cell viability assay.
MEASURED QUANTITY: IC50

Would you please look over these solved cases?
Nc1ccn([C@@H]2O[C@H](CO)[C@@H](O)C2(F)F)c(=O)n1 [GEMCITABINE]
> 1.02 µM
CN(C)C(=N)NC(=N)N [METFORMIN]
> 20000 µM
CC[C@H](CO)Nc1nc(NCc2ccccc2)c2ncn(C(C)C)c2n1 [SELICICLIB]
> 16 µM
COc1cc2c(Nc3ccc(NC(=O)c4ccccc4)cc3)ncnc2cc1OCCCN1CCOCC1
2.75 µM
CC(C)CCN1c2nc(Nc3cc(F)c(O)c(F)c3)ncc2N(C)C(=O)C1C (centres undefined)
3.07 µM
C#Cc1cccc(Nc2ncnc3cc(OCCOC)c(OCCOC)cc23)c1 [ERLOTINIB]
> 2 µM

Fill blank: measured IC50 of the molecule COc1cccc2c1C(=O)c1c(O)c3c(c(O)c1C2=O)C[C@@](O)(C(=O)CO)C[C@@H]3O[C@H]1C[C@H](N)[C@H](O)[C@H](C)O1 [DOXORUBICIN] is ____.
> 1.02 µM

Fill blank: measured IC50 of the molecule Cn1cnc2c(F)c(Nc3ccc(Br)cc3Cl)c(C(=O)NOCCO)cc21 [SELUMETINIB] is ____.
0.701 µM

Fill blank: measured IC50 of the molecule C=C(c1ccc(C(=O)O)cc1)c1cc2c(cc1C)C(C)(C)CCC2(C)C [BEXAROTENE] is ____.
> 8 µM

----------
# Test system: NB5;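 also: growth inhibition of NB5 cells, read out as cell viability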
# ASSAY NAME: cells
# Type: functional, cell-based, Homo sapiens
# CONDITION PARAMETERS: Homo sapiens, NB5
# Description: SANGER: Inhibition of human NB5 cell growth in a cell viability assay.
pIC50: −log10 of the molar value.
MEASURED QUANTITY: pIC50

Would you please look over these solved cases?
N[C@@H](CSC(c1ccccc1)(c1ccccc1)c1ccccc1)C(=O)O
< 5.29
OCCCNc1cc(-c2ccnc(Nc3cccc(Cl)c3)n2)ccn1
< 6.59
COc1cc(N2CCN(C)CC2)ccc1Nc1ncc2c(n1)N(C)c1ccccc1C(=O)N2C
< 5.10
CC1(C)CNc2cc(NC(=O)c3cccnc3NCc3ccncc3)ccc21
< 5.70

Moving on to another compound below.
Fill blank: measured pIC50 of the compound COc1cc2ncn(-c3cc(OCc4ccccc4C(F)(F)F)c(C(N)=O)s3)c2cc1OC [GW843682X] is ____.
7.06

----------
Listed compounds paired with reported pIC50
# Tested on: LB373-MEL-D;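 also: growth inhibition of the cell line, read out in a cell viability assay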
# ASSAY NAME: cells
# Format: functional, cell-based, Homo sapiens
# CONDITION PARAMETERS: Homo sapiens, LB373-MEL-D
# Description: SANGER: Inhibition of human LB373-MEL-D cell growth in a cell viability assay.
pIC50: −log10 of the molar value.

COc1cc(N2CCN(C)CC2)ccc1Nc1ncc2c(n1)N(C)c1ccccc1C(=O)N2C
< 5.10
O=C(O)c1ccc(-c2c[nH]c3ncc(-c4ccccc4)cc23)cc1C1CCCC1
< 4.80
Cc1cc([N+](=O)[O-])ccc1NS(=O)(=O)c1cc(Cl)ccc1Cl
5.54
N#Cc1c(O)c2c(-c3ccc(-c4ccccc4O)cc3)csc2[nH]c1=O
< 5.99
C=C(c1ccc(C(=O)O)cc1)c1cc2c(cc1C)C(C)(C)CCC2(C)C
< 5.10
Oc1ccc2ccccc2c1SSc1c(O)ccc2ccccc12
< 4.49
CO[C@H]1C[C@@H]2CC[C@@H](C)[C@@](O)(O2)C(=O)C(=O)N2CCCC[C@H]2C(=O)O[C@H]([C@H](C)C[C@@H]2CC[C@@H](OC(=O)C(C)(CO)CO)[C@H](OC)C2)CC(=O)[C@H](C)/C=C(\C)[C@@H](O)[C@@H](OC)C(=O)[C@H](C)C[C@H](C)/C=C/C=C/C=C/1C
< 6.70
CC(C)CCN1c2nc(Nc3cc(F)c(O)c(F)c3)ncc2N(C)C(=O)C1C (stereo not given)
< 5.30

Fill blank: measured pIC50 of the compound "CC(=O)O[C@H]1C(=O)[C@@]2(C)[C@H]([C@H](OC(=O)c3ccccc3)[C@]3(O)C[C@H](OC(=O)[C@H](O)[C@@H](NC(=O)c4ccccc4)c4ccccc4)C(C)=C1C3(C)C)[C@]1(OC(C)=O)CO[C@@H]1C[C@@H]2O" is ____.
7.39

Fill blank: measured pIC50 of the compound "Cc1ccc(-c2c(C(=O)CCl)n(CCCO)c3ncnc(N)c23)cc1" is ____.
< 5.40
